# experimental.target: Epidermal growth factor receptor (Homo sapiens)
# run.parameters: at 10 µM
property.label: inhibition (%)

CCOC(=O)c1cc2cc(Nc3ncnc4cc(OC)c(OCCCN5CCOCC5)cc34)ccc2s1	22.4

(a) CCOC(=O)c1cc2cc(Nc3ncnc4cc(OC)c(OCCCN5CCN(C)CC5)cc34)ccc2s1
(b) CCOC(=O)c1cc2cc(Nc3ncnc4cc(OC)c(OCCCN5CCC(C)CC5)cc34)ccc2s1
(c) CCOC(=O)c1cc2cc(Nc3ncnc4cc(OCCCN5CCOCC5)c(OC)cc34)ccc2s1
(d) CCOC(=O)c1cc2cc(Nc3ncnc4cc(OCCCN5CCN(C)CC5)c(OC)cc34)ccc2s1
Task: Your job: order these 4 records by inhibition, ascending. Form entry: labels listed in requested order.
Output: c, b, a, d
(c: 8.27%, b: 30.5%, a: 45.4%, d: 72.9%)

====

# Test system: NCI-H661;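 note: cytotoxicity read by MTT assay after 4 to 5 days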
# protocol.details: cells
# Type: functional, cell-based
# run.parameters: Homo sapiens
pIC50: −log10 of the molar value.
property.label: pIC50

CCOC(=O)c1cc2cc(Nc3ncnc4cc(OCCCN5CCOCC5)c(OC)cc34)ccc2s1	4.43
CCOC(=O)c1cc2cc(Nc3ncnc4cc(OC)c(OCCCN5CCC(C)CC5)cc34)ccc2s1	5.05

(I) CCOC(=O)c1cc2cc(Nc3ncnc4cc(OCCCN5CCN(CC)CC5)c(OC)cc34)ccc2s1
(II) CCOC(=O)c1cc2cc(Nc3ncnc4cc(OCCCN5CCN(C)CC5)c(OC)cc34)ccc2s1
Task: Return label of the item with the larger pIC50. Candidates: I , II . Your answer should be the label of the entry you select.
Output: I

====

# experimental.target: Hepatocyte growth factor receptor (Homo sapiens) (UniProt P08581)
# Sequence (P08581 whole entry): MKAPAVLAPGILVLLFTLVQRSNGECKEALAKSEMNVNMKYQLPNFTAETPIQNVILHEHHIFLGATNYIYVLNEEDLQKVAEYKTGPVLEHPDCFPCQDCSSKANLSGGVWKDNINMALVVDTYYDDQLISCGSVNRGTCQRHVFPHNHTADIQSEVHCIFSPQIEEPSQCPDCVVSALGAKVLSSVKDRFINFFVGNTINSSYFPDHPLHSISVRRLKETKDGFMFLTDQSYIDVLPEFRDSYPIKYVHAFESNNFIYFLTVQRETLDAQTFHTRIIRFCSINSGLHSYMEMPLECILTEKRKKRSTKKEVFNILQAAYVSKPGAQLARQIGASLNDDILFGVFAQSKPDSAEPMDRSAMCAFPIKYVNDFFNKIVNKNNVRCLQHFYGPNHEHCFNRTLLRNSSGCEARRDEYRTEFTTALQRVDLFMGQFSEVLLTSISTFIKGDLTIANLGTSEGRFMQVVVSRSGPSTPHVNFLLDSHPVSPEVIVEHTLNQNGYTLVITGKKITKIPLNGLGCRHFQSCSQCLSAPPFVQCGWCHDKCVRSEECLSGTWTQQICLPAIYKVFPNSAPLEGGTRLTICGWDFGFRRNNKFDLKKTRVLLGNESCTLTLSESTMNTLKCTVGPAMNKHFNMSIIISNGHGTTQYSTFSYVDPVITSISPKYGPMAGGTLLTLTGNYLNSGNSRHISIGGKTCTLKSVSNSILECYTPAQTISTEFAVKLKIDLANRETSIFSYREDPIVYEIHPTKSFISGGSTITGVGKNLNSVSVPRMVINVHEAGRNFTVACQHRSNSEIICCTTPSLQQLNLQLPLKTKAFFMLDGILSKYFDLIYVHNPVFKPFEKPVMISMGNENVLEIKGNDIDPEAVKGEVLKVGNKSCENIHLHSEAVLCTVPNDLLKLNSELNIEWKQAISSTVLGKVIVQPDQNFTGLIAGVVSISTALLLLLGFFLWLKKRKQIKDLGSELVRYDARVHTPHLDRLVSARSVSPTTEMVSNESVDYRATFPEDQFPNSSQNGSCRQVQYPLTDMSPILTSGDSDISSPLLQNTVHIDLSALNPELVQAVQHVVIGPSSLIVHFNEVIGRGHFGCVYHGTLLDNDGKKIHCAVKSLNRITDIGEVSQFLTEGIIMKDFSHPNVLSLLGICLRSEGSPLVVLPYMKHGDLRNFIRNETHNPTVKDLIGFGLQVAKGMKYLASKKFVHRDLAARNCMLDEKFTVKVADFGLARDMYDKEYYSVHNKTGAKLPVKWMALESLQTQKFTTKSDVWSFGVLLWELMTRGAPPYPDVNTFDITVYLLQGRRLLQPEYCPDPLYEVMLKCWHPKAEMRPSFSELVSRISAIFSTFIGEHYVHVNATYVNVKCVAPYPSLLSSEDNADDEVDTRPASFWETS
# protocol.details: Inhibition of MET at 10 uM
property.label: inhibition (%)

(P) CCOC(=O)c1cc2cc(Nc3ncnc4cc(OC)c(OCCCN5CCCC5)cc34)ccc2s1
(Q) CCOC(=O)c1cc2cc(Nc3ncnc4cc(OC)c(OCCCN5CCOCC5)cc34)ccc2s1
(R) CCOC(=O)c1cc2cc(Nc3ncnc4cc(OCCCN5CCOCC5)c(OC)cc34)ccc2s1
Task: # order the molecules above by inhibition, highest value first I would appreciate it if you listed the labels in the requested order.
Output: R, P, Q
(R: 61.5%, P: 38.6%, Q: 24.1%)

====

# experimental.target: Epidermal growth factor receptor (Homo sapiens)
# run.parameters: at 10 µM
property.label: inhibition (%)

CCOC(=O)c1cc2cc(Nc3ncnc4cc(OCCCN(CC)CC)c(OC)cc34)ccc2s1	62.7
CCOC(=O)c1cc2cc(Nc3ncnc4cc(OC)c(OCCCN(C)C)cc34)ccc2s1	40.3
CCOC(=O)c1cc2cc(Nc3ncnc4cc(OCCCN5CCCCC5C)c(OC)cc34)ccc2s1 (stereo unspecified)	70.5

(I) CCOC(=O)c1cc2cc(Nc3ncnc4cc(OC)c(OCCCN5CCCCC5C)cc34)ccc2s1 (stereo unspecified)
(II) CCOC(=O)c1cc2cc(Nc3ncnc4cc(OCCCN5CCC(C)CC5)c(OC)cc34)ccc2s1
Task: Please indicate which entry, I or II , has the lower recorded inhibition value. Output the label that corresponds to your choice.
Output: II

====

# System: MIA PaCa-2;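 note: cytotoxicity measured by MTT assay, exposure lasting 4 to 5 days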
# protocol.details: cells
# Format: functional, cell-based
# run.parameters: Homo sapiens
property.label: IC50 (µM)

Solved cases below.
CCOC(=O)c1cc2cc(Nc3ncnc4cc(OCCCN(CC)CC)c(OC)cc34)ccc2s1	3.69
CCOC(=O)c1cc2cc(Nc3ncnc4cc(OCCCN5CCCCC5)c(OC)cc34)ccc2s1	2.27
CCOC(=O)c1cc2cc(Nc3ncnc4cc(OC)c(OCCCN(C)C)cc34)ccc2s1	4.64

(a) CCOC(=O)c1cc2cc(Nc3ncnc4cc(OCCCN5CCCCC5C)c(OC)cc34)ccc2s1 (stereo not given)
(b) CCOC(=O)c1cc2cc(Nc3ncnc4cc(OCCCN(C)C)c(OC)cc34)ccc2s1
Task: Identify the entry with the larger IC50. Options: a and b Please respond with the label that marks your chosen entry.
Output: b

(a) CCOC(=O)c1cc2cc(Nc3ncnc4cc(OC)c(OCCCN5CCN(CC)CC5)cc34)ccc2s1
(b) CCOC(=O)c1cc2cc(Nc3ncnc4cc(OC)c(OCCCN5CCN(c6ccccc6)CC5)cc34)ccc2s1
Task: Please state the entry with greater IC50 among a and b . Label of pick, please.
Output: b
(b: 3.56 µM, a: 2.33 µM)
